tested on: AS120; test: qHTS profiling for inhibitors of Plasmodium falciparum proliferation (AID 504749); note: nearly all actives have a fitted effect of over 60% in size; conditions: P. falciparum in erythrocytes, SYBR Green DNA, 72 h; series mostly up to 28.7 µM
Inconclusive results are not listed. Active and inactive are the calls of the source. Calls come from the whole dose curve; as a rule, active = well fitted inhibition curve with a large enough effect; inconclusive = small, poorly fitted or top-dose-only effect; inactive = flat fitted curve, though single readings scatter.
Outcomes: active, inactive

[
  {
    "molecule": "NC(=O)NC(CCC(=O)O)C(=O)O (stereo not given)",
    "assigned-label": "inactive"
  },
  {
    "molecule": "C[C@]12CC[C@@H]3c4ccc(O)cc4C[C@@H](CCCCCCCCCS(=O)CCCC(F)(F)C(F)(F)F)C3[C@@H]1CC[C@@H]2O (stereo not given in full)",
    "assigned-label": "active"
  },
  {
    "molecule": "Cc1cnc(NC(=O)C2C(=O)c3ccccc3S(=O)(=O)N2C)s1 (stereo not given)",
    "assigned-label": "inactive"
  },
  {
    "molecule": "CC(C)C(=O)OCC(=O)[C@@]12OC(C3CCCCC3)O[C@@H]1CC1C3CCC4=CC(=O)C=C[C@]4(C)C3[C@@H](O)C[C@@]12C (stereo not given in full)",
    "assigned-label": "active"
  },
  {
    "molecule": "CC1(C)CC1C(=O)N/C(=C/CCCCSCC(N)C(=O)O)C(=O)O (stereo not given)",
    "assigned-label": "inactive"
  }
]

====

system: CP191; assay: qHTS profiling for inhibitors of Plasmodium falciparum proliferation (AID 504749); note: nearly all actives have a fitted effect of over 60% in size; details: P. falciparum in erythrocytes, SYBR Green DNA, 72 h; series mostly up to 28.7 µM
Results filed as inconclusive are left out. Active and inactive are the calls of the source. Calls follow the shape of the dose curve; as a rule, active = well fitted inhibition curve with a large enough effect; inconclusive = small, poorly fitted or top-dose-only effect; inactive = flat fitted curve, though single readings scatter.
Outcomes: class 1 (active), class 0 (inactive)

[
  {
    "compound": "CO/N=C(/C(=O)N[C@@H]1C(=O)N2C(C(=O)O)=C(CSC(=O)c3ccco3)CSC12)c1csc(N)n1 (some centres undefined)",
    "assigned-label": "class 0"
  },
  {
    "compound": "NC(CSSCC(N)C(=O)O)C(=O)O (centres undefined)",
    "assigned-label": "class 0"
  },
  {
    "compound": "NC(=O)NC(CCC(=O)O)C(=O)O (centres undefined)",
    "assigned-label": "class 0"
  },
  {
    "compound": "CCCCN1CC(O)C(O)C(O)C1CO (centres undefined)",
    "assigned-label": "class 0"
  },
  {
    "compound": "Cc1ccc(/C=C2/C(=O)C3(C)CCC2C3(C)C)cc1 (centres undefined)",
    "assigned-label": "class 0"
  },
  {
    "compound": "C=C1C(n2cnc3c(=O)[nH]c(N)nc32)C[C@H](O)[C@H]1CO (some centres undefined)",
    "assigned-label": "class 0"
  },
  {
    "compound": "O=c1ccn(C2OC(COP(=O)(O)OC3C(CO)OC(n4ccc(=O)[nH]c4=O)C3O)C(O)C2O)c(=O)[nH]1 (centres undefined)",
    "assigned-label": "class 0"
  },
  {
    "compound": "CCN1CCN(C(=O)NC(C(=O)NC2C(=O)N3C(C(=O)O)=C(CSc4nnnn4C)CSC23)c2ccc(O)cc2)C(=O)C1=O (centres undefined)",
    "assigned-label": "class 0"
  },
  {
    "compound": "CCC(C(=O)O)C1OC(C(C)C(O)C(C)C(=O)C(CC)C2OC3(C=CC(O)C4(CCC(C)(C5CCC(O)(CC)C(C)O5)O4)O3)C(C)CC2C)C(C)CC1C (centres undefined)",
    "assigned-label": "class 1"
  }
]

====

tested on: CP335; test: qHTS profiling for inhibitors of Plasmodium falciparum proliferation (AID 504749); note: nearly all actives have a fitted effect of over 60% in size; conditions: P. falciparum in erythrocytes, SYBR Green DNA, 72 h; series mostly up to 28.7 µM
Records with an inconclusive call do not appear. The source made the active and inactive calls. Calls follow the shape of the dose curve; as a rule, active = well fitted inhibition curve with a large enough effect; inconclusive = small, poorly fitted or top-dose-only effect; inactive = flat fitted curve, though single readings scatter.
Outcomes: Y for active, N for inactive

[
  {
    "compound": "CC(=O)NC1[C@H]([C@H](O)[C@H](O)CO)OC(C(=O)O)=C[C@H]1N=C(N)N (some centres not stated)",
    "assigned-label": "N"
  },
  {
    "compound": "OC[C@@H]1O[C@](CO)(O[C@H]2O[C@H](CO)[C@@H](O)[C@H](O)[C@H]2O)[C@H](O)[C@H]1O",
    "assigned-label": "N"
  },
  {
    "compound": "CC(C)(C)C(=O)OCC(=O)C1CCC2C3CCC4=CC(=O)CCC4(C)C3CCC12C (configuration not stated)",
    "assigned-label": "N"
  },
  {
    "compound": "CC1(C)SC2[C@@H](N=CN3CCCCCC3)C(=O)N2[C@H]1C(=O)O (some centres not stated)",
    "assigned-label": "N"
  },
  {
    "compound": "CCCC(=O)O[C@]1(C(=O)COC(C)=O)CC[C@H]2C3C[C@H](F)C4=CC(=O)C=CC4(C)[C@@]3(F)[C@@H](O)CC21C (some centres not stated)",
    "assigned-label": "N"
  },
  {
    "compound": "CC1(C)C2CC[C@]1(C)[C@@H](O)C2",
    "assigned-label": "N"
  },
  {
    "compound": "C[C@H]1[C@@H](OC(=O)CCC(=O)O)OC2OC3(C)CC[C@H]4[C@H](C)CC[C@@H]1[C@@]24OO3 (some centres not stated)",
    "assigned-label": "Y"
  },
  {
    "compound": "CO/N=C(/C(=O)N[C@@H]1C(=O)N2C(C(=O)O)=C(CSc3cnns3)CS[C@H]12)c1csc(N)n1",
    "assigned-label": "N"
  },
  {
    "compound": "CC(C)C(=O)OCC(=O)[C@@]12OC(C3CCCCC3)O[C@@H]1CC1C3CCC4=CC(=O)C=C[C@]4(C)C3[C@@H](O)C[C@@]12C (some centres not stated)",
    "assigned-label": "Y"
  },
  {
    "compound": "O=C1CC[C@H](C(=O)N[C@@H]2C[C@H]2c2ccccc2)N1",
    "assigned-label": "N"
  },
  {
    "compound": "CN(C)CC[C@@](O)(c1ccccc1)c1ccccc1Cl",
    "assigned-label": "Y"
  },
  {
    "compound": "C=C1/C(=C\\C=C2/CCC[C@]3(C)[C@@H]([C@H](C)/C=C/[C@@H](O)C4CC4)CC[C@@H]23)C[C@@H](O)C[C@@H]1O",
    "assigned-label": "N"
  },
  {
    "compound": "C=C[C@@]1(C)C[C@H](OC(=O)CSC(C)(C)CNC(=O)[C@@H](N)C(C)C)[C@@]2(C)C(C)CC[C@@]3(CCC(=O)[C@@H]32)[C@H](C)[C@H]1O (some centres not stated)",
    "assigned-label": "Y"
  },
  {
    "compound": "Cc1ccc(Nc2ncccc2C(=O)O)cc1C",
    "assigned-label": "N"
  },
  {
    "compound": "COc1ccc2cc1Oc1cc3c(cc1OC)CC[N+](C)(C)C3Cc1ccc(cc1)Oc1c(OC)c(OC)cc3c1C(C2)[N+](C)(C)CC3 (configuration not stated)",
    "assigned-label": "N"
  },
  {
    "compound": "CO/N=C(/C(=O)N[C@@H]1C(=O)N2C(C(=O)O)=C(CSc3nc(C)c(CC(=O)O)s3)CS[C@H]12)c1csc(N)n1",
    "assigned-label": "N"
  },
  {
    "compound": "CNC1C(O)C(OC2C(N)CC(N)C(OC3OC(CN)=CCC3N)C2O)OCC1(C)O (configuration not stated)",
    "assigned-label": "N"
  },
  {
    "compound": "N#C/C(=C1/SCC(c2ccccc2Cl)S1)n1ccnc1 (configuration not stated)",
    "assigned-label": "N"
  },
  {
    "compound": "CC1OC(OCC2OC(Oc3c(-c4ccc(OCCO)c(OCCO)c4)oc4cc(OCCO)cc(O)c4c3=O)C(O)C(O)C2O)[C@@H](O)C(O)C1O (some centres not stated)",
    "assigned-label": "N"
  },
  {
    "compound": "CC1CCC(C(C)C)C(O)C1 (configuration not stated)",
    "assigned-label": "N"
  },
  {
    "compound": "CCC(C)C(N)C(=O)O (configuration not stated)",
    "assigned-label": "N"
  },
  {
    "compound": "CNC1=CN(O)C(c2ccccc2)=c2cc(Cl)ccc2=N1",
    "assigned-label": "Y"
  },
  {
    "compound": "Cc1onc(-c2c(F)cccc2Cl)c1C(=O)NC1C(=O)N2C1SC(C)(C)C2C(=O)O (configuration not stated)",
    "assigned-label": "N"
  },
  {
    "compound": "CN[C@H](C)CCC=C(C)C",
    "assigned-label": "Y"
  },
  {
    "compound": "CC1(Cn2ccnn2)[C@H](C(=O)O)N2C(=O)C[C@H]2S1(=O)=O (some centres not stated)",
    "assigned-label": "N"
  },
  {
    "compound": "C[C@@H](O)[C@@H]1C(=O)N2C(C(=O)O)=C([C@H]3CCCO3)S[C@H]12",
    "assigned-label": "N"
  },
  {
    "compound": "O=C1C(I)=CC(=C(c2cc(I)c(O)c(I)c2)c2ccccc2C(=O)O)C=C1I",
    "assigned-label": "N"
  },
  {
    "compound": "CCCCCCCCCCCC(=O)OCC(O)C1OCC(O)C1O (configuration not stated)",
    "assigned-label": "N"
  },
  {
    "compound": "C[C@@H]1C(SC2Cn3cnc[n+]3C2)=C(C(=O)[O-])N2C(=O)[C@H]([C@@H](C)O)[C@@H]12 (some centres not stated)",
    "assigned-label": "N"
  },
  {
    "compound": "CCCCCCCCCCCCCCCC(=O)OCC(COP(=O)(O)OCC[N+](C)(C)C)OC(=O)CCCCCCCCCCCCCCC (configuration not stated)",
    "assigned-label": "N"
  },
  {
    "compound": "C=C(NCc1ccccc1)c1ccccc1O",
    "assigned-label": "N"
  },
  {
    "compound": "C[C@H](CN1c2ccccc2Sc2cccnc21)N(C)C",
    "assigned-label": "Y"
  },
  {
    "compound": "Cn1cc(C(=O)[C@@H]2CCc3[nH]cnc3C2)c2ccccc21",
    "assigned-label": "N"
  },
  {
    "compound": "CC[C@@]1(O)CC2CN(CCc3c([nH]c4ccccc34)[C@](C(=O)OC)(c3cc4c(cc3OC)N(C)C3[C@@](O)(C(=O)OC)C(OC(C)=O)[C@]5(CC)C=CCN6CC[C@@]43C65)C2)C1 (some centres not stated)",
    "assigned-label": "Y"
  },
  {
    "compound": "Nc1ncn(C2C[C@H](O)[C@@H](CO)O2)c(=O)n1 (some centres not stated)",
    "assigned-label": "N"
  },
  {
    "compound": "CC1=C(C/C=C(\\C)CCCC(C)CCCC(C)CCCC(C)C)C(=O)c2ccccc2C1=O (configuration not stated)",
    "assigned-label": "Y"
  },
  {
    "compound": "Cc1ccccc1N1C(=O)c2cc(N)ccc2N/C1=C\\F",
    "assigned-label": "N"
  }
]
